Attribute: IC50
- Tested on: HTT mRNA
- Experimental Protocol: RT-qPCR splicing assay, HTT mRNA canonical (CJ) and alternative (AJ) junction
- Type: cell-based, human
- Assay Setup: Homo sapiens, HTT canonical junction mRNA, RT-qPCR; read-out: HTT CJ (decrease in CJ mRNA levels, IC50)

Cc1nc2cc(O)c(-c3ccc4nc(N5CCC(N)CC5)ccc4n3)cc2o1 | 1000 to 10000 nM
C[C@H]1C[C@@H](c2ccc3nc(-c4cc5cn(C)nc5c(F)c4O)ccc3n2)CCN1 (single isomer, unassigned) | < 100 nM
Cc1nc2cc(O)c(-c3ccc4nc(N5CC[C@@H](NC(C)(C)C)C5)ccc4n3)cc2o1 | 100 to 1000 nM
Cc1nc2cc(O)c(-c3ccc4nc(N5CCNC(C(C)(C)C)C5)ccc4n3)cc2o1 (stereo not drawn) | 100 to 1000 nM
CC(=O)c1nc(-c2cc3cn(C)nc3c(F)c2O)nc2ccc(N3C[C@@H](C)N[C@@H](C)C3)cc12 | 100 to 1000 nM

Query :: What value of IC50 has been reported for the following compound? CNC1CCN(c2ccc3nc(-c4cc5cn(C)nc5c(C)c4O)ncc3n2)C1 (stereo not drawn)
Result :: 100 to 1000 nM

Query :: What value of IC50 has been reported for the following compound? Cc1c(O)c(-c2ccc3nc(N4CCC(NC5CCC5)C4)ccc3n2)cc2cn(C)nc12 (stereo not drawn)
Result :: < 100 nM

Query :: What value of IC50 has been reported for the following compound? Cn1cc2cc(-c3ccc4nc(N5CCC6(CCN6)C5)ccc4n3)c(O)cc2n1 (stereo not drawn)
Result :: 100 to 1000 nM

Query :: What value of IC50 has been reported for the following compound? Cc1cn2nc(-c3ccc4nc(N5CCC(NC6CC6)C5)ccc4n3)c(O)c2c(C)n1 (stereo not drawn)
Result :: < 100 nM

Query :: What value of IC50 has been reported for the following compound? Cc1c(O)c(-c2ccc3nc(N4CC[C@@H](NC5CC5)C4)ncc3n2)cc2cn(C)nc12
Result :: < 100 nM

Query :: What value of IC50 has been reported for the following compound? C[C@@H]1CN(c2ccc3nc(-c4cc5cn(C)nc5c(F)c4O)ncc3c2)C[C@@H](C)N1
Result :: 100 to 1000 nM

Query :: What value of IC50 has been reported for the following compound? CN[C@H]1CCN(c2ccc3nc(-c4cc5cn(C)nc5cc4O)ccc3n2)C1
Result :: < 100 nM

Query :: What value of IC50 has been reported for the following compound? COc1cc2c(=O)n(C)cnc2cc1-c1ccc2nc(N3CCC(NC(C)(C)C)C3)ccc2n1 (stereo not drawn)
Result :: > 10000 nM
